These measurements were taken from ChEMBL document CHEMBL1201862.

System: TK-10
Assay: NCI tumour cell line growth inhibition, 48 h
Active and inactive are the calls of the source. Cut-off read from the data, not from the text of the source: active = GI50 up to about 1.1 µM and inactive = higher.
Permitted responses: True = active, False = inactive

{"columns": ["COMPOUND", "GROUP"],
 "data": [
  ["N/N=C(\\N)SCc1ccc(N=C=S)cc1", "False"]
]}

Request: Could you please tell me the result logged for Cc1ccc(SCC(OCn2cnc3c(Cl)nc(N)nc32)[C@H](C)F)cc1 (some centres undefined) in this assay?
Response: False

Request: Param item: Cc1ccc(Cc2nnc(S)[nH]2)cc1
Response: False

---

Test system: NCI-H23
Test: NCI tumour cell line growth inhibition, 48 h
Active and inactive are the calls of the source. Cut-off read from the data, not from the text of the source: active = GI50 up to about 1.1 µM and inactive = higher.
Permitted responses: active, inactive

{"columns": ["MOLECULE", "GROUP"],
 "data": [
  ["CNC(=O)CCNC(=O)CCC(=O)N(C)C", "inactive"],
  ["COc1cc(/C=C/c2cc(=O)cc(/C=C/c3ccc(O)c(OC)c3)o2)ccc1O", "inactive"],
  ["CC(=O)NC1C(OCc2ccccc2)OC(CO)C(O)C1OC(C)C(=O)N[C@@H](C)C(=O)N[C@H](CCC(=O)NCCNCCNc1c2ccccc2nc2cccc([N+](=O)[O-])c12)C(N)=O (some centres not stated)", "active"],
  ["OCCNCCOc1ccc(/C(=C(/Cl)c2ccccc2)c2ccccc2)cc1", "inactive"]
]}

Request: Could you please tell me the result logged for c1ccc(C(c2ccccc2)c2ccccn2)cc1 in this assay?
Response: inactive

Request: Param item: C=CCn1c(=O)n(CC=C)c(=O)n(CC=C)c1=O
Response: inactive

Request: Param item: CN1C(=O)C2CCCC(=O)N2c2cccnc21 (configuration not stated)
Response: inactive

Request: Param item: Nc1ccc2c(c1)C(=O)c1ccccc1-2
Response: inactive

Request: Param item: C=CCc1cc(OC)c2c(c1)C(OC(C)=O)CC(c1ccc(OC)c(OC)c1)O2 (configuration not stated)
Response: inactive

---

Here, each record is paired with measured GI50 data.
Test system: OVCAR-8
Experiment: NCI tumour cell line growth inhibition, 48 h
Activity calls are given as the source filed them. Cut-off read from the data, not from the text of the source: active = GI50 up to about 1.1 µM and inactive = higher.

Example entries and their recorded answers appear below.
{"columns": ["COMPOUND", "GI50"],
 "data": [
  ["Nc1ccc2c(c1)C(=O)c1ccccc1-2", "54.8 µM (inactive)"],
  ["CCOC(=O)C(CS)NC(=O)CCCCCCCC(=O)O (stereo not drawn)", "> 100 µM (inactive)"]
]}

Request: Query (compound): CCOC(=O)c1c(N2CCCC2)ncn(Cc2ccccc2)c1=S ; field requested: GI50
Response: > 100 µM (inactive)

---

Test system: T47D
Assay: NCI tumour cell line growth inhibition, 48 h
The source made the active and inactive calls. Cut-off read from the data, not from the text of the source: active = GI50 up to about 1.1 µM and inactive = higher.
MEASURED_QUANTITY: GI50

{"columns": ["MOLECULE", "GI50"],
 "data": [
  ["O=S(=O)(O)c1ccc(/N=N/c2ccc(/N=N/c3c(O)c(S(=O)(=O)O)cc4cc(S(=O)(=O)O)ccc34)cc2)cc1", "> 100 µM (inactive)"],
  ["CC(C)[C@@H]1CC[C@@H](C)C[C@H]1OC(=O)/C=C1/C2C=CC(O2)C1C(=O)O[C@@H]1C[C@H](C)CC[C@H]1C(C)C (stereo partly specified)", "45.3 µM (inactive)"],
  ["O=c1cnn(C/C=C/CO)c(=O)[nH]1", "> 100 µM (inactive)"]
]}

Request: Look up GI50 with T47D for this molecule: Cc1ccc(Cc2nnc(S)[nH]2)cc1
Response: 40.8 µM (inactive)

Request: Param item: O=C(N/N=C(COc1cccc(Cl)c1)\N=C\c1cccnc1)c1ccncc1
Response: 32.5 µM (inactive)

Request: Param item: COc1ccc2nc3n(c2c1)C(c1c(Cl)cccc1Cl)SC3 (stereo unspecified)
Response: > 100 µM (inactive)

---

Here, each record is paired with measured GI50 data.
System: DU-145
Assay: NCI tumour cell line growth inhibition, 48 h
Activity calls are given as the source filed them. Cut-off read from the data, not from the text of the source: active = GI50 up to about 1.1 µM and inactive = higher.

{"columns": ["COMPOUND", "TGT", "GI50"],
 "data": [
  ["CSC1=NN(C(C)=O)C(C(OC(C)=O)C(OC(C)=O)C(OC(C)=O)C(COC(C)=O)OC(C)=O)S1 (stereo not drawn)", "DU-145", "> 100 µM (inactive)"],
  ["N=C(Nc1nc(-c2ccccn2)cc2ccccc12)c1ccccn1", "DU-145", "0.0673 µM (active)"]
]}

Request: Query (compound): CCCCc1ccc(Nc2nc(N)c3ncn(COCCO)c3n2)cc1 ; field requested: GI50
Response: 37.7 µM (inactive)

---

System: 786-0
Assay: NCI tumour cell line growth inhibition, 48 h
The source made the active and inactive calls. Cut-off read from the data, not from the text of the source: active = GI50 up to about 1.1 µM and inactive = higher.
MEASURED_QUANTITY: GI50

{"columns": ["MOLECULE", "GI50"],
 "data": [
  ["O=C(CC(=O)N1N=C(N(c2ccccc2)c2ccccc2)CC1c1ccccc1)Nc1ccccc1 (stereo not given)", "81.7 µM (inactive)"]
]}

Request: Look up GI50 with 786-0 for this molecule: C/C(CC(O)(C(F)(F)F)C(F)(F)F)=N\O
Response: > 10 µM (inactive)

Request: Param item: N#CCCC(CC#N)N1CCN(CCO)CC1 (stereo not given)
Response: > 100 µM (inactive)

Request: Param item: O=C(/C=C/c1ccc2c(c1)OCO2)CC(=O)/C=C/c1ccc2c(c1)OCO2
Response: 49.8 µM (inactive)

Request: Param item: O=S(=O)(O)c1ccc(/N=N/c2ccc(/N=N/c3c(O)c(S(=O)(=O)O)cc4cc(S(=O)(=O)O)ccc34)cc2)cc1
Response: > 100 µM (inactive)

Request: Param item: CCN(CC)Cc1ccc(C(=S)Nc2ccc(Cl)cc2)s1
Response: 13.1 µM (inactive)

Request: Param item: CC(=O)Oc1cccc2c1C(=O)c1c(OC(C)=O)cc(C)cc1C2=O
Response: 20.4 µM (inactive)

Request: Param item: CCO/C=C1\N=C(c2ccc(Cl)c(Cl)c2)OC1=O
Response: > 100 µM (inactive)

Request: Param item: O=c1cc(CO)oc2c3c(cc(O)c12)OCC(COC1OC(CO)C(O)C(O)C1O)=CC3 (stereo not given)
Response: > 100 µM (inactive)

Request: Param item: Cn1nc(S(N)(=O)=O)s/c1=N/C(N)=S
Response: > 100 µM (inactive)

---

Tested on: HCC 2998
Assay: NCI tumour cell line growth inhibition, 48 h
Activity calls are given as the source filed them. No stated cut-off is given here; in the data, active = GI50 up to about 1.1 µM and inactive = higher.
Permitted responses: Y (active), N (inactive)

Solved cases (6 shown):
{"columns": ["COMPOUND", "GROUP"],
 "data": [
  ["O=[N+]([O-])c1ccc(C(=S)Nc2ccccc2)o1", "N"],
  ["COc1cccc2c1C(=O)c1c(O)c3c(c(O)c1C2=O)CC(O)(C(O)CO)CC3OC1CC(N2CCOCC2)C(O)C(C)O1 (configuration not stated)", "Y"],
  ["CCCC1C(CC)C(NC)C(C#N)(C#N)C1(C#N)C#N (configuration not stated)", "N"],
  ["Nc1ncnc2c1ncn2C1CCC(CO)O1 (configuration not stated)", "N"],
  ["O=C(NC1CCCCC1NC(c1ccccc1)(c1ccccc1)c1ccccc1)C(=O)NC1CCCCC1NC(c1ccccc1)(c1ccccc1)c1ccccc1 (configuration not stated)", "N"],
  ["COc1ccc(/C=C/c2cc(OC)c(OCc3ccccc3)c(OC)c2)cc1", "N"]
]}

Request: Could you please tell me the result logged for Cc1ccc(SCC(OCn2cnc3c(Cl)nc(N)nc32)[C@H](C)F)cc1 (some centres not stated) in this assay?
Response: N

Request: Param item: CCCCc1ccc(Nc2nc(N)c3ncn(COCCO)c3n2)cc1
Response: N

Request: Param item: Cc1c[nH]c(C(=O)O)c1-c1ccc2c(-c3ccccc3)nc3ccccc3n12
Response: N

Request: Param item: COC(=O)C(/C(=N/N)C(=O)Nc1cccc(O)c1)c1nc2ccccc2nc1O (configuration not stated)
Response: N

Request: Param item: Cc1ccc(-n2c3nc(=O)n(C)c(=O)c-3nc3ccccc32)c(C)c1
Response: N

---

Test system: SF-539
Assay: NCI tumour cell line growth inhibition, 48 h
Active and inactive are the calls of the source. Cut-off read from the data, not from the text of the source: active = GI50 up to about 1.1 µM and inactive = higher.
Permitted responses: yes (active), no (inactive)

Solved cases (6 shown):
{"columns": ["MOLECULE", "GROUP"],
 "data": [
  ["N=C(Nc1nc(-c2ccccn2)cc2ccccc12)c1ccccn1", "yes"],
  ["CCCCc1ccc(Nc2nc(N)c3ncn(COCCO)c3n2)cc1", "no"],
  ["CC(=O)c1ccc(/N=N/N2CCCC2)cc1", "no"],
  ["COc1cc(/C=C2\\Cc3cc(OC)c(OC)cc3C2=O)cc(OC)c1", "no"],
  ["Nc1ncnc2c1ncn2[C@@H]1O[C@H](COC(c2ccccc2)(c2ccccc2)c2ccccc2)[C@@H](OC(=S)Oc2ccccc2)[C@@H]1F", "no"],
  ["CCCOP1(=O)C=C(C)C(Cl)=C(C)C1 (stereo unspecified)", "no"]
]}

Request: Could you please tell me the result logged for O=c1c2cc([N+](=O)[O-])ccc2n2n1CCCCC2 in this assay?
Response: no

Request: Param item: Cc1cc2c(cc1C)[n+]([O-])c(C(=O)/C=C/c1ccc3c(c1)OCO3)c(C)[n+]2[O-]
Response: no

Request: Param item: OC1(c2ccc(Cl)cc2)c2c(c3ccccc3c3ccccc23)C2=NCCN21 (stereo unspecified)
Response: no

Request: Param item: N#Cc1c(-c2ccccc2)c(/C=N/c2ccc(F)cc2)c(=O)n2c1[nH]c1ccccc12
Response: no

Request: Param item: CC(=O)OCCN(C1=NCCN1)/[N+](C=c1ccc(=C=[N-])cc1)=C/c1ccc(C#N)cc1
Response: no
